# System: A549
# Assay Text: NCI tumour cell line growth inhibition, 48 h
Activity calls are given as the source filed them. Rule as the data show it: active = GI50 up to about 1.1 µM and inactive = higher.
Result category, one only: 1.0 for active, 0.0 for inactive

Request: Test call for this compound, please: CN(C)/C=N/c1ccc2nonc2c1
Response: 0.0

Request: Test call for this compound, please: Nc1ncnc2c1ncn2C1OC(C(=O)OCCO)C(O)C1O (stereo not drawn)
Response: 0.0

Request: Test call for this compound, please: O=C(NCCc1ccccc1)C1C(=O)C(=O)N(CCc2ccccc2)C1=O (stereo not drawn)
Response: 0.0

Request: Test call for this compound, please: CCCc1ccc(NCc2cc(OC)c(OC)c(OC)c2)cc1
Response: 0.0

Request: Test call for this compound, please: c1ccc2c(c1)ccc1ncccc12
Response: 0.0

Request: Test call for this compound, please: COc1cc2oc(=O)cc(C)c2cc1[N+](=O)[O-]
Response: 0.0

Request: Test call for this compound, please: O=C1N/C(=N/N=C\c2ccccc2)N/C1=C/c1ccc(Cl)cc1
Response: 0.0

Request: Test call for this compound, please: N#Cc1c(NC(=S)NC(=O)c2ccccc2)nc2c(c1-c1ccccc1)CCC2
Response: 0.0

Request: Test call for this compound, please: C=C1C[C@@H]2CC[C@@]34CC5O[C@H]6C(O[C@H]7CC[C@H](CC(=O)O[C@@H]8[C@@H](C)[C@@H]9O[C@@H]%10C[C@]%11(C[C@@H]%12O[C@]%13(C[C@H](C)[C@@H]%14O[C@@H]%15CC(C(O)CO)O[C@@H]%15C[C@@H]%14O%13)C[C@H](C)[C@@H]%12O%11)O[C@@H]%10C[C@@H]9O[C@H]8CC8O[C@@H](CC[C@@H]1O2)C[C@@H](C)C8(O)CO)O[C@@H]7[C@@H]6O3)[C@H]5O4 (stereo partly drawn)
Response: 1.0

Request: Test call for this compound, please: COC1/C=C/C(C)C(OC)CC(O)/C=C/C(C)C(C(C)C(OC)C(C)CCC(=O)C(C)C(C/C=C/N(C)C=O)OC)OC(=O)/C=C/C=C(\C)CC(OC)C(OC)C2=CC(=O)O[C@@H](C(C)C(OC)C1)[C@H]2O (stereo partly drawn)
Response: 1.0

Request: Test call for this compound, please: COC(=O)/C=C(/C(=O)OC)c1cc2ccc3c([nH]c4ccccc43)c(C)c-2c1
Response: 0.0

Request: Test call for this compound, please: CN1C(=O)c2ccccc2OC12C=Cc1c(ccc3ccccc13)O2 (stereo not drawn)
Response: 0.0

Request: Test call for this compound, please: CN(C)CCNc1ccc(NCCN(C)C)c2c1C(=O)c1ncsc1C2=O
Response: 0.0

Request: Test call for this compound, please: c1ccc2cc3[s+]snc3cc2c1
Response: 0.0

Request: Test call for this compound, please: NC(=O)C1CCCN1C(=O)C(Cc1c[nH]cn1)NC(=O)C1CCCC1 (stereo not drawn)
Response: 0.0

Request: Test call for this compound, please: C=C1CC[C@H]2C(=O)OC(c3ccoc3)C[C@]2(C)C/C=C\C=C/1C(=O)OC (stereo partly drawn)
Response: 0.0

Request: Test call for this compound, please: C#CC1(O)CCC2C3CCc4cc(Oc5nc(F)nc(-c6c7ccccc7c7n6CCS7)n5)ccc4C3CC[C@@]21C (stereo partly drawn)
Response: 0.0

Request: Test call for this compound, please: CN(C)Cc1cc(C(C)(C)C)cc(CNC2CCCCC2)c1O
Response: 0.0
